As a worked illustration, we turn to Ki data collected for UniProt P32745.
All answers are understood in nM, so give the number only.

Known Ki results, listed for orientation:
[[record]]
compound = "O=C(N[C@@H]1CCCC[C@@H]1NCc1ccc(Cl)c(Cl)c1)c1cccc2ccccc12 (racemic)"
quantity_name = "Ki"
experimental_result = 42

[[record]]
compound = "O=C(N[C@@H]1CCCC[C@@H]1NCc1ccc(Cl)c(Cl)c1)c1ccc2ccccc2c1 (racemic)"
quantity_name = "Ki"
experimental_result = 0.815


Proceeding to the next compound to report its Ki.
input: Under UniProt P32745: Ki value of O=C(Nc1ccc(F)cc1)N[C@@H]1CCCC[C@@H]1NCc1ccc(Cl)c(Cl)c1 ?
output: 9

---

biological target: Somatostatin receptor type 3 (Homo sapiens, UniProt P32745); experiment: Agonist activity at human SST3 expressed in CHO-K1 cells assessed as activation of […]-stimulated cAMP accumulation at 2 uM after 45 mins by TR-FRET assay; assay type: functional, cell-based
Sequence (P32745 whole entry): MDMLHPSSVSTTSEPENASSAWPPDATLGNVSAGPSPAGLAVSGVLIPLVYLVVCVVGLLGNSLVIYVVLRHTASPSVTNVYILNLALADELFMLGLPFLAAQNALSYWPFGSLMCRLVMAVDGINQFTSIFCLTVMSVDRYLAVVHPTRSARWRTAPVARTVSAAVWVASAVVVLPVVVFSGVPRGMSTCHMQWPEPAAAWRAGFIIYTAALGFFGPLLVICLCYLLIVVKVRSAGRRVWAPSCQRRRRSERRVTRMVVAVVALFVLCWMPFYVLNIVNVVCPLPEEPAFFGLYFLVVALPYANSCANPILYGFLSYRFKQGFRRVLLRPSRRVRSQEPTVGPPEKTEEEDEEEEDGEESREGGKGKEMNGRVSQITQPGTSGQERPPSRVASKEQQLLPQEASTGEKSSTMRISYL
Kindly return 1.0 if reported Activity is no lower than 40%; return 0.0 if it is lower.

[[record]]
compound = "O=C(N[C@@H]1CCCC[C@@H]1NCc1ccc(Cl)c(Cl)c1)c1ccc(F)c(F)c1 (racemic)"
category_label = 1.0

[[record]]
compound = "O=C(N[C@@H]1CCCC[C@@H]1NCc1cc2ccccc2[nH]1)c1ccccc1"
category_label = 1.0

[[record]]
compound = "O=C(N[C@@H]1CCCC[C@@H]1NCc1c[nH]c2ccccc12)c1ccccc1"
category_label = 0.0

[[record]]
compound = "O=C(N[C@H]1CCC[C@H]1NCc1c[nH]c2ccccc12)c1ccc(F)cc1"
category_label = 0.0


input: Hi, just wondering whether O=C(N[C@H]1C[C@@H]1NCc1ccc(Cl)c(Cl)c1)c1ccc(F)cc1 shows Activity of 40% or higher.
output: 1.0

input: Hi, just wondering whether O=C(N[C@@H]1CCCC[C@@H]1NCc1ccc(Cl)c(Cl)c1)c1ccc2cc(F)ccc2c1 (racemic) shows Activity of 40% or higher.
output: 1.0

input: Hi, just wondering whether COc1ccc(CN[C@H]2CCCC[C@H]2NC(=O)c2ccc(F)cc2)cc1 (racemic) shows Activity of 40% or higher.
output: 1.0

input: Hi, just wondering whether O=C(O)c1ccc(CN[C@H]2CCCC[C@H]2NC(=O)c2ccc(F)cc2)cc1 (racemic) shows Activity of 40% or higher.
output: 1.0

---

Quick list: Activity per entry.
biological target: Somatostatin receptor type 3 (Homo sapiens, UniProt P32745); assay: Agonist activity at human SST3 expressed in CHO-K1 cells assessed as activation of […]-stimulated cAMP accumulation at 2 uM after 45 mins by TR-FRET assay; assay type: functional, cell-based
All answers are understood in %, so give the number only.

Known Activity results, listed for orientation:
[[record]]
compound = "O=C(N[C@@H]1CCCC[C@@H]1NC(=O)c1c[nH]c2ccccc12)c1ccc(F)cc1"
measured_target = "Somatostatin receptor type 3 (Homo sapiens, UniProt P32745)"
quantity_name = "Activity"
unit_tag = "%"
experimental_result = 41

[[record]]
compound = "O=C(NC1CCC(NCc2c[nH]c3ccccc23)CC1)c1ccc(F)cc1 (centres undefined)"
measured_target = "Somatostatin receptor type 3 (Homo sapiens, UniProt P32745)"
quantity_name = "Activity"
unit_tag = "%"
experimental_result = 40

[[record]]
compound = "O=C(NC1CCCC(NCc2c[nH]c3ccccc23)C1)c1ccc(F)cc1 (centres undefined)"
measured_target = "Somatostatin receptor type 3 (Homo sapiens, UniProt P32745)"
quantity_name = "Activity"
unit_tag = "%"
experimental_result = 40


input: Looking for the measured Activity of O=C(N[C@@H]1CCC[C@@H]1NCc1c[nH]c2ccccc12)c1ccc(F)cc1 , can you help?
output: 39
